assay-target: human orexin 2 receptor (Homo sapiens (Human), UniProt O43614)
Sequence (O43614 whole entry): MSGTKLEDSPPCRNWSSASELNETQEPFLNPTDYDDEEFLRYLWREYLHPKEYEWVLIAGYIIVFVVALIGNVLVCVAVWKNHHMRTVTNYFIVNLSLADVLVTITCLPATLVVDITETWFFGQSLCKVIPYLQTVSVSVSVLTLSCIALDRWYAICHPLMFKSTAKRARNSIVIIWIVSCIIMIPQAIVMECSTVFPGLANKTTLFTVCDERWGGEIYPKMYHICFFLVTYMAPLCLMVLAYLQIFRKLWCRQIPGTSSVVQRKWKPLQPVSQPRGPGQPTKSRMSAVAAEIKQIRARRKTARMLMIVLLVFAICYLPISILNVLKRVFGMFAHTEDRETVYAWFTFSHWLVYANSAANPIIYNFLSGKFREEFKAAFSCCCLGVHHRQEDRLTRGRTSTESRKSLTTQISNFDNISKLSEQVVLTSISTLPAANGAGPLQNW
run-description: Human orexin 2 receptor radioligand binding ([3H]-EMPA competition)
recorded-conditions: HEK293 stably expressing human orexin 2 receptor; 2 nM [3H]-EMPA; averages of 2-20 runs; read-out: hOX2 Ki
Reported values of pKi for individual entries
Keep it numeric: pKi is minus log10 of the concentration in mol/L.

Would you please look over these solved cases?
Q: Which pKi value belongs to "Cc1ccc(-c2ncccn2)c(C(=O)N2[C@H](C)[C@H]3C[C@@H](Nc4ccc(C(F)(F)F)cn4)[C@@H]2C3)n1" ?
Result: 6.46

Q: Which pKi value belongs to "Cc1cnc(C(=O)N2[C@H](C)[C@@H]3CC[C@H]2[C@H](Oc2ccc(C(F)(F)F)cn2)C3)c(-c2ncccn2)c1" ?
Result: 5.30

Q: Which pKi value belongs to CC1C2CC(Nc3cnc(C(F)(F)F)cn3)C(C2)N1C(=O)c1ccccc1-n1nccn1 (single isomer, unassigned) [Example 68B] ?
Result: 6.59

Q: Which pKi value belongs to "[2H]C1([2H])[C@H]2C[C@@H]([C@@H]1Oc1ccc(C(F)(F)F)cn1)N(C(=O)c1ncc(C)cc1-n1nccn1)[C@@H]2C" ?
Result: 5.92

Q: Which pKi value belongs to "C[C@@H]1[C@H]2C[C@@H](Oc3ccc(C(F)(F)F)cn3)[C@H](C2)N1C(=O)c1ccccc1-c1ccc(F)nc1" ?
Result: 5.80

Q: Which pKi value belongs to CC1C2CC(Oc3ccc(C(F)(F)F)cn3)C(C2)N1C(=O)c1ccc(F)cc1-c1ncccn1 (single isomer, unassigned) [Example 17B] ?
Result: 6.02

Q: Which pKi value belongs to CCC1C2CC(Oc3ccc(C(F)(F)F)cn3)C(C2)N1C(=O)c1ncc(C)cc1-n1nccn1 (racemic) ?
Result: 5.82

Q: Which pKi value belongs to CCC1C2CC(Oc3ccc(C(F)(F)F)cn3)C(C2)N1C(=O)c1cccc(F)c1-c1ncccn1 (racemic) ?
Result: 6.61

Continuing:
Q: Which pKi value belongs to "C[C@@H]1[C@@H]2CC[C@@H]([C@H](Oc3ccc(C(F)(F)F)cn3)C2)N1C(=O)c1ncccc1-n1nccn1" ?
Result: 5.55

Q: Which pKi value belongs to CC1C2CC(Oc3ccc(C(F)(F)F)cn3)C(C2)N1C(=O)c1ncccc1-n1nccn1 (racemic) ?
Result: 5.43
